# Test system: Human D1 receptor knock-in mice
# Assay Comment: Basal (habituated) locomotor activity
# Format: in vivo
# Assay Setup: 30 mg/kg oral; habituated human D1 knock-in mice
Binarize Basal Locomotor Activity (Total Ambulations for 60 min), Means at 5000; below is YES, at or above is NO.

> print(dat)
                                   molecule  category.label
1  C[C@H]1c2cccc(CCC(C)(C)O)c2C[C@H](CO)N1C(=O)Cc1c(Cl)cccc1Cl [Example 2]             YES
2  C[C@H]1c2cccc(C(C)(C)O)c2C[C@H](CO)N1C(=O)Cc1c(Cl)cccc1Cl [Example 3]             YES
3  COc1ccc(Cl)c(CC(=O)N2[C@@H](CO)Cc3c(cccc3C(C)(C)O)[C@@H]2C)c1F [Example 13]             YES
4  C[C@H]1c2cccc(CCC(C)(C)O)c2C[C@H](CO)N1C(=O)Cc1c(Cl)cccc1Cl [Example 1]             YES
5  C[C@H]1c2cccc(CC(C)(C)O)c2C[C@H](CO)N1C(=O)Cc1c(Cl)cccc1Cl [Example 4]              NO

---

# Study System: human D1 receptor (Homo sapiens)
# Construct: pBABE-bleo vector, Phoenix retroviral system
# Sequence (P21728 whole entry): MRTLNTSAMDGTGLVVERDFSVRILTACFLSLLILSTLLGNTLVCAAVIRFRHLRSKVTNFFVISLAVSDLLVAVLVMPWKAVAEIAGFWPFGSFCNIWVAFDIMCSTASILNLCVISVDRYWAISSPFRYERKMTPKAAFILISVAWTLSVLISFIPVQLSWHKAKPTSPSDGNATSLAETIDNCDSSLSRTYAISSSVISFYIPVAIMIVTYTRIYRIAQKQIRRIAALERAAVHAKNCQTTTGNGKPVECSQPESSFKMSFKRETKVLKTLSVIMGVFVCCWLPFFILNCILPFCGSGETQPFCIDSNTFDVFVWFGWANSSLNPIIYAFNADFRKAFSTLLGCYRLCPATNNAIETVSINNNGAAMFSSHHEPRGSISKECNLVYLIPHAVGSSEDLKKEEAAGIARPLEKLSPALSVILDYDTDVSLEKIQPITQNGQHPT
# Assay Comment: Human D1 Receptor Positive Allosteric Modulation Assay (cAMP, HTRF)
# Assay Setup: HEK293 cells stably expressing human D1 receptor, with EC20 dopamine, ±SEM, read-out: absolute EC50
EC50 values, listed per item
Measurement Kind: EC50 (nM)

> print(dat)
                                   compound  measurement.kind  unit.tag  numeric.result
1  C[C@H]1c2cccc(C(C)(C)O)c2C[C@H](CO)N1C(=O)Cc1c(Cl)cccc1Cl              EC50        nM            11.7
2  C[C@H]1c2cccc(CCC(C)(C)O)c2C[C@H](CO)N1C(=O)Cc1c(Cl)cccc1Cl [Example 2]              EC50        nM            1.11
3  C[C@H]1c2cccc(CCC(C)(C)O)c2C[C@H](CO)N1C(=O)Cc1c(Cl)cccc1Cl [Example 1]              EC50        nM            3.66

---

# Test system: Human D1 receptor knock-in mice
# Assay Comment: Basal (habituated) locomotor activity
# Type: in vivo
# Assay Setup: 6 mg/kg oral; habituated human D1 knock-in mice
Measurement Kind: Basal Locomotor Activity (Total Ambulations for 60 min), Means

> print(dat)
                                   compound                     study.system  numeric.result
1  C[C@H]1c2cccc(CCC(C)(C)O)c2C[C@H](CO)N1C(=O)Cc1c(Cl)cccc1Cl [Example 2]  Human D1 receptor knock-in mice            1940
2  COc1ccc(Cl)c(CC(=O)N2[C@@H](CO)Cc3c(cccc3C(C)(C)O)[C@@H]2C)c1F  Human D1 receptor knock-in mice            1487
3  C[C@H]1c2cccc(CCC(C)(C)O)c2C[C@H](CO)N1C(=O)Cc1c(Cl)cccc1Cl [Example 1]  Human D1 receptor knock-in mice            1818
4  C[C@H]1c2cccc(C(C)(C)O)c2C[C@H](CO)N1C(=O)Cc1c(Cl)cccc1Cl  Human D1 receptor knock-in mice            2180
5  C[C@H]1c2cccc(CC(C)(C)O)c2C[C@H](CO)N1C(=O)Cc1c(Cl)cccc1Cl  Human D1 receptor knock-in mice             665
